Target: UniProtKB P80457
Sequence (P80457 2-1332): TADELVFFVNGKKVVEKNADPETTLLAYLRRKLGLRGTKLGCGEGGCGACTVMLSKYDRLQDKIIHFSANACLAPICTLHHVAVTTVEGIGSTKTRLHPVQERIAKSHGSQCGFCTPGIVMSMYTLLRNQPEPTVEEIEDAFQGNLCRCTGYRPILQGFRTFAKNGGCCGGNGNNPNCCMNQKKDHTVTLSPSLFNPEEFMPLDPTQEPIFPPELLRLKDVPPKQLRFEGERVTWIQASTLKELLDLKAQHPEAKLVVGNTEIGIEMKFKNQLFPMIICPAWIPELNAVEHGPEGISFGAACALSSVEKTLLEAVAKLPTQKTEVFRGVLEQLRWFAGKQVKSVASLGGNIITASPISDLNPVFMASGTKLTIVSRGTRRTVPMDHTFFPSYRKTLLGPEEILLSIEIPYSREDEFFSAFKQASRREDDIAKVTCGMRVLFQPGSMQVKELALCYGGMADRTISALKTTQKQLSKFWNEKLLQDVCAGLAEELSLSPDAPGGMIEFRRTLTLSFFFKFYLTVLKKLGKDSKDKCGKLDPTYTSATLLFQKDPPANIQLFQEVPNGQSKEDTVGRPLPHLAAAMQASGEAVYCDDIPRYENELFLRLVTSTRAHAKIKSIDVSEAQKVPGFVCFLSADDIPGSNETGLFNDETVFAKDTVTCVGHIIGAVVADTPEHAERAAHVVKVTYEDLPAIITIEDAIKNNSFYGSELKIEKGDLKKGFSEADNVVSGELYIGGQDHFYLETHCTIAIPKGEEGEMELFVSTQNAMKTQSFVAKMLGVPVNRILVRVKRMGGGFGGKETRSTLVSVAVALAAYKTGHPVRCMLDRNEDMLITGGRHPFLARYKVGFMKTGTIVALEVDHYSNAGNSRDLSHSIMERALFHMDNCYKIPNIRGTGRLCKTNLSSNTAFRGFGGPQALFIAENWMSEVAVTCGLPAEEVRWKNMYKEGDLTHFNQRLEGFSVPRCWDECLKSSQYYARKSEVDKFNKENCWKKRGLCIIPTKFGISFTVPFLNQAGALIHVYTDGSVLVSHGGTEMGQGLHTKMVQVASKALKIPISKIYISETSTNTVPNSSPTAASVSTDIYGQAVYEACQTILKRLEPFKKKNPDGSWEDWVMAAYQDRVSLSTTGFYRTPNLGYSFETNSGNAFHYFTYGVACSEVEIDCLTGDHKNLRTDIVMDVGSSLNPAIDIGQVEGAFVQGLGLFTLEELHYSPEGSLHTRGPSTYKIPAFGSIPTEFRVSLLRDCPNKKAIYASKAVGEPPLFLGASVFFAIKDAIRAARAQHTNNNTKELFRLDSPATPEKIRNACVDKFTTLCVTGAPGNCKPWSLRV
test_readout: IC50 (µM)
Answers are plain numbers, in µM.

q: For the molecule "CC(=O)c1cc(O)ccc1O" , what IC50 is on record?
a: 8.12

Taken from paper PMC5983617.
